Reported IC50 is given for each of the following compounds.
- MEASURED_ON: recombinant integrin α4β7 (Homo sapiens, UniProt P13612+P26010, DEL724-798)
- Construct: purchased R&D Systems 5397-A3-050
- Sequence (P13612 34-970 limits assumed, stated change not applied): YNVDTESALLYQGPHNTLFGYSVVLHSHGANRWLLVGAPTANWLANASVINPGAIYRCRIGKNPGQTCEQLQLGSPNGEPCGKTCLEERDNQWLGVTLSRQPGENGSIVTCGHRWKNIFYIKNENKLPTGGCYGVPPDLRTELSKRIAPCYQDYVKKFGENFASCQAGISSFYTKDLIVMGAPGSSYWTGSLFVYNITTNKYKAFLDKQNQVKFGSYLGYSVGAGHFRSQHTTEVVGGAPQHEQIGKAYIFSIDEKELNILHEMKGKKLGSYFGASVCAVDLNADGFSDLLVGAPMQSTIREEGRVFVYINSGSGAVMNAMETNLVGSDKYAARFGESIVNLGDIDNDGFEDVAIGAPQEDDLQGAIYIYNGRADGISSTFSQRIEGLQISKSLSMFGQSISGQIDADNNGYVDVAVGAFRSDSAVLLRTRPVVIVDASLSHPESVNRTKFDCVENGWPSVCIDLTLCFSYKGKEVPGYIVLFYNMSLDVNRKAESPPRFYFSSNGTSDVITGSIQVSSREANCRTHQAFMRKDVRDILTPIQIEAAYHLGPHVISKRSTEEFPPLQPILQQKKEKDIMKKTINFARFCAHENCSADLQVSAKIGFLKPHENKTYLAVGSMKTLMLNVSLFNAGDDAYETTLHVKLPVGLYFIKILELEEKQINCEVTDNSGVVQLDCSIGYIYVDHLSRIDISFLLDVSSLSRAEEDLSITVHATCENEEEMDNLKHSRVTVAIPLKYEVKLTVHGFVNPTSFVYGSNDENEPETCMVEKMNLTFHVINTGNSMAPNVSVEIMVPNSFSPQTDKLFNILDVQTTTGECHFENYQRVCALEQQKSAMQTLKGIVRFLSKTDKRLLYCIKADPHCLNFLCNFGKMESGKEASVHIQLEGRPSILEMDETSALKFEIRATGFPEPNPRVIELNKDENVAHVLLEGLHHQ
- Sequence (P26010 20-723 limits assumed, stated change not applied): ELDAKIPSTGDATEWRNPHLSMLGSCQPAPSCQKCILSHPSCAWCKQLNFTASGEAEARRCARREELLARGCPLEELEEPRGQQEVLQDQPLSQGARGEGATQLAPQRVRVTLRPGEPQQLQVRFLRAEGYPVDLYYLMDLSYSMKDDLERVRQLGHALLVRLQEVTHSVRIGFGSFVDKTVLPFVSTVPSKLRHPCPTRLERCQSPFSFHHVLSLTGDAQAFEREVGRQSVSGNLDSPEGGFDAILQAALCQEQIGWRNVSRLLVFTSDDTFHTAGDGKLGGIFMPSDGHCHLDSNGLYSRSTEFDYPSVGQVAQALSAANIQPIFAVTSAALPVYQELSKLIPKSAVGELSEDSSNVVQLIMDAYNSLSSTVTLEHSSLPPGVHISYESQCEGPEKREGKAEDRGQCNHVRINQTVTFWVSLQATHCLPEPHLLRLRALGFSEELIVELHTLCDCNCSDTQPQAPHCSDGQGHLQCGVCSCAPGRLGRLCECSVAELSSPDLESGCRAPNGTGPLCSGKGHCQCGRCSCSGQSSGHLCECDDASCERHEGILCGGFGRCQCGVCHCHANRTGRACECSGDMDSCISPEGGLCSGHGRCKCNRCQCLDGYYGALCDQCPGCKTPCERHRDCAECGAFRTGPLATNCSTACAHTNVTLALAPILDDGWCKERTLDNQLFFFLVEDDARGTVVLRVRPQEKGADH
- EXPERIMENT_SUMMARY: Integrin α4β7—MAdCAM-1 ELISA competition assay
- Format: binding
- MEASUREMENT_CONTEXT: read-out: ELISA α4β7 Assay IC50
Record the value in nM, omitting the unit from your answer.

COc1cc(C(=O)N2CCN(c3ccc(-c4ccc5cc4CNC(=O)[C@@H]4CCCN4[C@H](C(=O)NC(C)(C)C)[C@H](C)NC(=O)[C@H]([C@@H](C)O)NC(=O)[C@H](CC(=O)O)NC(=O)[C@H](CC(C)C)NC5=O)cc3)CC2)cc(-c2ccc(C(=O)N3CCN(c4ccc(-c5ccc6cc5CNC(=O)[C@@H]5CCCN5[C@H](C(=O)NC(C)(C)C)[C@H](C)NC(=O)[C@H]([C@@H](C)O)NC(=O)[C@H](CC(=O)O)NC(=O)[C@H](CC(C)C)NC6=O)cc4)CC3)cc2F)c1 [Compound 464]	61

Here is the next item to consider.
Quick one: give measured IC50 for CC(C)C[C@@H]1NC(=O)c2ccc(-c3ccc(N4CCN(C(=O)c5ccccc5-c5ccccc5C(=O)N5CCN(c6ccc(-c7ccc8cc7CNC(=O)[C@@H]7CCCN7[C@H](C(=O)NC(C)(C)C)[C@H](C)NC(=O)[C@H]([C@@H](C)O)NC(=O)[C@H](CC(=O)O)NC(=O)[C@H](CC(C)C)NC8=O)cc6)CC5)CC4)cc3)c(c2)CNC(=O)[C@@H]2CCCN2[C@H](C(=O)NC(C)(C)C)[C@H](C)NC(=O)[C@H]([C@@H](C)O)NC(=O)[C@H](CC(=O)O)NC1=O [Compound 517]
7.5

====

Measured IC50 values are reported for all entries that follow.
- MEASURED_ON: recombinant integrin α4β1 (Homo sapiens, UniProt P05556+P13612)
- Construct: purchased R&D Systems 5397-A3-050
- Sequence (P13612 34-970 limits assumed): as the sequence (P13612 34-970 limits assumed, stated change not applied) above
- Sequence (P05556 21-728 limits assumed): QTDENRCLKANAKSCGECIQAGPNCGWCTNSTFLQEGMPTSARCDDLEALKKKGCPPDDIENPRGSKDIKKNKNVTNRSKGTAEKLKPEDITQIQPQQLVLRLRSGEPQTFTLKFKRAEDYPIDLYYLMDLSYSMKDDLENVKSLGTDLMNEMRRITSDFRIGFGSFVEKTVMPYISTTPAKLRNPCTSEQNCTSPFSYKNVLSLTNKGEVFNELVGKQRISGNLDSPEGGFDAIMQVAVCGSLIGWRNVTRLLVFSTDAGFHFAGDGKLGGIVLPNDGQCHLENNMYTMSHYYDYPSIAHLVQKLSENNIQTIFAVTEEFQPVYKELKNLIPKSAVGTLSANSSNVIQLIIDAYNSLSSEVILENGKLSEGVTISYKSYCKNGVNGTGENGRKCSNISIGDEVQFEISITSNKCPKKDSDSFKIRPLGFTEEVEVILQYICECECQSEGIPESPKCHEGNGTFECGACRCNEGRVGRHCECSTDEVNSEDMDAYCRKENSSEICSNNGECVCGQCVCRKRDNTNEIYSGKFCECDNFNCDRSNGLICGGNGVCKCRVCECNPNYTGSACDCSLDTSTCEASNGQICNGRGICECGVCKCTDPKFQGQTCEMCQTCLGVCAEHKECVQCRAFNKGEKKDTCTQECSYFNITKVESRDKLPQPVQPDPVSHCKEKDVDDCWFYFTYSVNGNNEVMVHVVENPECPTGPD
- EXPERIMENT_SUMMARY: Integrin α4β1—VCAM-1 competition ELISA
- Assay type: binding
- MEASUREMENT_CONTEXT: read-out: ELISA a4b1 Assay IC50
# number only, unit nM dropped from output

CC(C)C[C@@H]1NC(=O)[C@H](CC2CCCCC2)NC(=O)[C@@H]2CCCN2[C@H](C(=O)NC(C)(C)C)[C@H](C)NC(=O)[C@H]([C@@H](C)O)NC(=O)[C@H](CC(=O)O)NC1=O	190
CC(C)C[C@@H]1NC(=O)[C@@H](CCCCN)NC(=O)[C@H](Cc2ccc(O)cc2)NC(=O)[C@@H]2CCCN2[C@H](C(=O)NC(C)(C)C)[C@H](C)NC(=O)[C@H]([C@@H](C)O)N(C)C(=O)[C@H](CC(=O)O)NC1=O	2190
CC(C)C[C@@H]1NC(=O)[C@H](Cc2cccc3ccccc23)NC(=O)[C@@H]2CCCN2[C@H](C(=O)NC(C)(C)C)[C@H](C)NC(=O)[C@H]([C@@H](C)O)NC(=O)[C@H](CC(=O)O)NC1=O	106

In the following, a different compound is considered.
Please supply the value of reported IC50 for the item CC(C)C[C@@H]1NC(=O)[C@@H](CCCNC(=N)N)N(C)C(=O)[C@H](Cc2ccc(O)cc2)NC(=O)[C@@H]2CCCN2[C@H](C(=O)NC(C)(C)C)[C@H](C)NC(=O)[C@H]([C@@H](C)O)NC(=O)[C@H](CC(=O)O)NC1=O
3710

====

- MEASURED_ON: integrin α4β1 (RAMOS human cells adhering to VCAM-1) (Homo sapiens, UniProt P05556+P13612)
- Construct: Ramos cells, which express integrin α4β1; host or cells: RAMOS
- Sequence (P13612 34-1032): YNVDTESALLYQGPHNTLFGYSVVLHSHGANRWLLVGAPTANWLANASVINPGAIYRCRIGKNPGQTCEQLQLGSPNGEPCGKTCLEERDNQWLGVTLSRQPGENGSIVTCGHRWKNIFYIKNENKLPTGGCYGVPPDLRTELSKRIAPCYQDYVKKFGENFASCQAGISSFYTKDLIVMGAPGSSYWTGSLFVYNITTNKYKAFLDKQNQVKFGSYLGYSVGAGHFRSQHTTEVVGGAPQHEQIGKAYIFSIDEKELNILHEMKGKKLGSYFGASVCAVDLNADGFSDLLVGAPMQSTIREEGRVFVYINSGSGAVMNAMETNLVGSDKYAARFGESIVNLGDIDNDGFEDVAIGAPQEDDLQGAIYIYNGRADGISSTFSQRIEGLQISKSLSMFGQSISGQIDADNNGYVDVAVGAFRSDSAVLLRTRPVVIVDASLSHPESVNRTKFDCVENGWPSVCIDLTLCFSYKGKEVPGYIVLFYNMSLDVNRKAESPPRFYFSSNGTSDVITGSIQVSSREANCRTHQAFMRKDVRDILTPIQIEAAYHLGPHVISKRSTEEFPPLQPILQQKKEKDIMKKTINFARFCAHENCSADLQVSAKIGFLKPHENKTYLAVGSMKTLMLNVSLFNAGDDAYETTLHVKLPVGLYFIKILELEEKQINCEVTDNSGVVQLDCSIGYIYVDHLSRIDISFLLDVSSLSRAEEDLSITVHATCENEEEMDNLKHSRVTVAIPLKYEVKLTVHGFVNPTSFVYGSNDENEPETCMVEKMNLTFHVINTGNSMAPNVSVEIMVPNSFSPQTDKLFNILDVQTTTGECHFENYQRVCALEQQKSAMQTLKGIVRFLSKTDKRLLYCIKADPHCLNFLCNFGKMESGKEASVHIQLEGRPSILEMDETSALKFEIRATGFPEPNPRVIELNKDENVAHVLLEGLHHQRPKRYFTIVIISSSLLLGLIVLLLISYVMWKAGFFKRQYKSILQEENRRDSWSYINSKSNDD
- Sequence (P05556 21-798): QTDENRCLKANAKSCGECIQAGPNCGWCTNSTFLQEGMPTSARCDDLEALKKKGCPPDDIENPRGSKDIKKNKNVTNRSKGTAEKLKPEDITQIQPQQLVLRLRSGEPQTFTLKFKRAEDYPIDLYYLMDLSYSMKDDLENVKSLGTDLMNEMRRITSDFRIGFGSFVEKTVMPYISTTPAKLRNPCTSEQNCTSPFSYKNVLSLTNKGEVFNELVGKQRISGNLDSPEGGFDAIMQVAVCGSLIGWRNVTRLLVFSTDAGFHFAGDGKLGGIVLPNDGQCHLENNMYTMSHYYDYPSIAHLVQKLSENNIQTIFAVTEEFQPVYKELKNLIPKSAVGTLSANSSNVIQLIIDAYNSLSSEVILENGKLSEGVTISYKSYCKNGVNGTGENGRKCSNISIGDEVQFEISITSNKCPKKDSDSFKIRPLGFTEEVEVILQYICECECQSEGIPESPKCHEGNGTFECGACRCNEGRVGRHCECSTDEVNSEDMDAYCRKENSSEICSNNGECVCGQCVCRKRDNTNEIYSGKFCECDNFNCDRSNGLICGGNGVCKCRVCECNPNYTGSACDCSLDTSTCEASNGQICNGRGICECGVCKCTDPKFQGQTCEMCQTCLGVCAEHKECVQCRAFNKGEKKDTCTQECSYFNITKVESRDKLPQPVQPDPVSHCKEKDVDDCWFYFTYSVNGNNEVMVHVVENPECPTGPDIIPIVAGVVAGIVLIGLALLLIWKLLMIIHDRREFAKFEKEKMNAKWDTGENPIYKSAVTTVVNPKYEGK
- EXPERIMENT_SUMMARY: Integrin α4β1-VCAM cell adhesion assay (RAMOS cells)
- Assay type: cell-based
- MEASUREMENT_CONTEXT: Ramos cells adhering to VCAM; read-out: Ramos Adhesion α4β1/VCAM IC50
Form field: IC50 (one value per entry).
// units = nM; emit number, no label

CC(C)C[C@@H]1NC(=O)c2ccc(-c3ccc(N4CCN(C(=O)C56CC7CC(C5)CC(C(=O)N5CCN(c8ccc(-c9ccc%10cc9CNC(=O)[C@@H]9CCCN9[C@H](C(=O)NC(C)(C)C)[C@H](C)NC(=O)[C@H]([C@@H](C)O)NC(=O)[C@H](CC(=O)O)NC(=O)[C@H](CC(C)C)NC%10=O)cc8)CC5)(C7)C6)CC4)cc3)c(c2)CNC(=O)[C@@H]2CCCN2[C@H](C(=O)NC(C)(C)C)[C@H](C)NC(=O)[C@H]([C@@H](C)O)NC(=O)[C@H](CC(=O)O)NC1=O	1850

Now look at this entry.
Write down measured IC50 (integrin α4β1 (RAMOS human cells adhering to VCAM-1) (Homo sapiens, UniProt P05556+P13612)) for this compound. CC(C)C[C@@H]1NC(=O)c2ccc(-c3ccc(N4CCN(C(=O)c5ccc(-c6ccc(C(=O)N7CCN(c8ccc(-c9ccc%10cc9CNC(=O)[C@@H]9CCCN9[C@H](C(=O)NC(C)(C)C)[C@H](C)NC(=O)[C@H]([C@@H](C)O)NC(=O)[C@H](CC(=O)O)NC(=O)[C@H](CC(C)C)NC%10=O)cc8)CC7)cc6)cc5)CC4)cc3)c(c2)CNC(=O)[C@@H]2CCCN2[C@H](C(=O)NC(C)(C)C)[C@H](C)NC(=O)[C@H]([C@@H](C)O)NC(=O)[C@H](CC(=O)O)NC1=O
1300

====

- MEASURED_ON: recombinant integrin α4β7 (Homo sapiens, UniProt P13612+P26010, DEL724-798)
- Construct: purchased R&D Systems 5397-A3-050
- EXPERIMENT_SUMMARY: Integrin α4β7—MAdCAM-1 ELISA competition assay
- Assay type: binding
- MEASUREMENT_CONTEXT: read-out: ELISA a4b7 Assay IC50
EXPERIMENTAL_READOUT: IC50 (nM)
Please give a number only; it is taken to be in nM.

// worked examples, IC50 included
CC(C)C[C@@H]1NC(=O)C[C@H](CCCCN)NC(=O)C2(CCNCC2)NC(=O)[C@@H]2CCCN2[C@H](C(=O)NC(C)(C)C)[C@H](C)NC(=O)[C@H]([C@@H](C)O)NC(=O)[C@H](CC(=O)O)NC1=O [Compound 275]	101
Cc1cccc(C)c1-c1ccc(C[C@@H]2NC(=O)[C@@H]3CCCN3[C@H](C(=O)NC(C)(C)C)[C@H](C)NC(=O)[C@H]([C@@H](C)O)NC(=O)[C@H](CC(=O)O)NC(=O)[C@H](CC(C)C)NC(=O)C[C@H](CCCCN)NC2=O)cc1 [Compound 268]	76
CC(C)C[C@@H]1NC(=O)C[C@H](CCCCN)NC(=O)[C@H](Cc2ccc(O)cc2)NC(=O)[C@@H]2CCCN2[C@H](C(=O)NC(C)(C)C)[C@H](C)NC(=O)[C@H]([C@@H](C)OCc2ccccc2)NC(=O)[C@H](CC(=O)O)NC1=O [Compound 200]	134

Assign IC50 to the following record: CC(C)C[C@@H]1NC(=O)CN(C)C(=O)[C@H](Cc2cccc(I)c2)NC(=O)[C@@H]2CCCN2[C@H](C(=O)NC(C)(C)C)[C@H](C)NC(=O)[C@H]([C@@H](C)O)NC(=O)[C@H](CC(=O)O)NC1=O [Compound 106]
59

====

- MEASURED_ON: recombinant integrin α4β7 (Homo sapiens, UniProt P13612+P26010, DEL724-798)
- Construct: purchased R&D Systems 5397-A3-050
- EXPERIMENT_SUMMARY: Integrin α4β7—MAdCAM-1 ELISA competition assay
- Format: binding
- MEASUREMENT_CONTEXT: ratio of a4b1 to a4b7 ELISA IC50
# label = yes (1) if ELISA Assay Ratio b1/b7 < 10 else no (0)

Example entries and their recorded answers appear below.
CC(C)C[C@@H]1NC(=O)[C@H]2CCCCN2C(=O)[C@H](Cc2ccccc2-c2ccccc2)NC(=O)[C@@H]2CCCN2[C@H](C(=O)NC(C)(C)C)[C@H](C)NC(=O)[C@H]([C@@H](C)O)NC(=O)[C@H](CC(=O)O)NC1=O [Compound 134]	yes (1)
CC(C)C[C@@H]1NC(=O)[C@H]2C[C@H](O)CN2C(=O)[C@H](Cc2ccc(CN)cc2)NC(=O)[C@@H]2CCCN2[C@H](C(=O)NC(C)(C)C)[C@H](C)NC(=O)[C@H]([C@@H](C)O)NC(=O)[C@H](CC(=O)O)NC1=O [Compound 152]	no (0)
C=CCOc1ccc(C[C@@H]2NC(=O)[C@@H]3CCCN3[C@H](C(=O)NC(C)(C)C)[C@H](C)NC(=O)[C@H]([C@@H](C)O)NC(=O)[C@H](CC(=O)O)NC(=O)[C@H](CC(C)C)NC(=O)[C@@H](CO)NC2=O)cc1 [Compound 167]	no (0)
COc1ccc(C[C@@H]2NC(=O)[C@@H]3CCCN3[C@H](C(=O)NC(C)(C)C)[C@H](C)NC(=O)[C@H]([C@@H](C)O)NC(=O)[C@H](CC(=O)O)NC(=O)[C@H](CC(C)C)NC(=O)[C@H]3CCCN3C2=O)cc1OC [Compound 127]	yes (1)
CC(C)C[C@@H]1NC(=O)c2ccc(-c3cccc4ncccc34)c(c2)CNC(=O)[C@@H]2CCCN2[C@H](C(=O)NC(C)(C)C)[C@H](C)NC(=O)[C@H]([C@@H](C)O)NC(=O)[C@H](CC(=O)O)NC1=O [Compound 347]	yes (1)

Lab note: confirm whether the reported ELISA Assay Ratio b1/b7 for this compound is below 10, equality not counting. compound: COc1cccc(Cl)c1-c1ccc(C[C@@H]2NC(=O)[C@@H]3CCCN3[C@H](C(=O)NC(C)(C)C)[C@H](C)NC(=O)[C@H]([C@@H](C)O)NC(=O)[C@H](CC(=O)O)NC(=O)[C@H](CC(C)C)NC(=O)C[C@H](CCCCN)NC2=O)cc1 [Compound 269]
no (0)

Please check: ELISA Assay Ratio b1/b7 for CC(C)C[C@@H]1NC(=O)C[C@H](CCCCN)NC(=O)[C@H](CC2CCCCC2)NC(=O)[C@@H]2CCCN2[C@H](C(=O)NC(C)(C)C)[C@H](C)NC(=O)[C@H]([C@@H](C)O)NC(=O)[C@H](CC(=O)O)NC1=O [Compound 210] , strictly under 10 or not?
no (0)

Field: below-cutoff. Rule: recorded ELISA Assay Ratio b1/b7 strictly less than 10. Subject: CC(C)C[C@@H]1NC(=O)[C@H]2CCCN2C(=O)[C@H](Cc2cc(F)c(F)c(F)c2)NC(=O)[C@@H]2CCCN2[C@H](C(=O)NC(C)(C)C)[C@H](C)NC(=O)[C@H]([C@@H](C)O)NC(=O)[C@H](CC(=O)O)NC1=O [Compound 128]
no (0)

The reported measurements were obtained from patent US11713338B2.
